Listing of recorded pIC50 by entry.
# targetOfAssay: DNA gyrase (Staphylococcus aureus, UniProt P0A0K8+P20831)
# experimentalDetails: Inhibition of Staphylococcus aureus Gyrase supercoiling activity assessed as reduction in supercoiling pBR322 DNA by measuring relaxation by bromophenol blue staining based TAE gel method
# pIC50 is unitless: minus log10 of the molar concentration; print number only

For orientation, consider the following solved cases.
1) COc1ccc2ccc(F)c(C[C@H](O)[C@H]3OC[C@H](NCc4ccc5c(n4)NC(=O)CO5)CO3)c2n1
7.02
2) COc1ccc2ncc(F)c(C(O)C[C@H]3OC[C@H](NCc4cc5c(nn4)OCCS5)CO3)c2n1 (mixture of isomers)
6.62
3) COc1ccc2ncc(F)c(C(O)C[C@H]3OC[C@H](NCc4cc5c(nn4)OCCS5)CO3)c2c1 (mixture of isomers)
6.43
4) COc1ccc2ncc(F)c(C[C@H](O)[C@H]3OC[C@H](NCc4cc5c(nn4)OCCO5)CO3)c2c1
6.08
5) COc1ccc2ncc(F)c(C[C@H](O)[C@H]3OC[C@H](NCc4ccc5c(n4)NC(=O)CO5)CO3)c2c1
7.08
6) COc1ccc2ncc(F)c(C[C@H](O)[C@H]3OC[C@H](NCc4ccc(C)cc4)CO3)c2n1
6.80

Recorded pIC50 for COc1ccc2ncc(F)c(C[C@H](O)[C@H]3OC[C@H](NCc4cc5c(nn4)OCCO5)CO3)c2n1 with DNA gyrase (Staphylococcus aureus, UniProt P0A0K8+P20831), please? 4.49

Recorded pIC50 for COc1ccc2ncc(F)c(C(O)C[C@H]3OC[C@H](NCc4ccc(Cl)c(Cl)c4)CO3)c2c1 (mixture of isomers) with DNA gyrase (Staphylococcus aureus, UniProt P0A0K8+P20831), please? 6.80

Numbers sourced from ChEMBL document CHEMBL4837261.
